Catalogue of Rtkn induction level values
System: Rtkn-GFP reporter in mouse embryonic stem (mES) cells
assay text: ToxTracker genotoxicity assay, Rtkn-GFP reporter induction;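 also: GFP reporter signal quantified solely in intact single cells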
run parameters: without S9 rat liver extract; concentration inducing 50% cytotoxicity; 24 h exposure
Entry rule: numbers only, all in fold.

{"molecule": "CCCCOCC(CN1CC1)OC(=O)NC1CCC(CC2CCC(NC(=O)OC(COCCCC)CN3CC3)CC2)CC1 (stereo not drawn) [Comp. Ex 4]", "measurement units": "fold", "measured value": 2.1}

Lab entry: Rtkn-GFP reporter in mouse embryonic stem (mES) cells assay, molecule CCCCCCCCCC(=O)OCC(CN1CC1)OC(=O)NCCCCCCn1c(=O)n(CCCCCCNC(=O)OC(COC(=O)CCCCCCCCC)CN2CC2)c(=O)n(CCCCCCNC(=O)OC(COC(=O)CCCCCCCCC)CN2CC2)c1=O (stereo not drawn) [Ex. 3] , Rtkn induction level = 1.5

Rtkn induction level for Rtkn-GFP reporter in mouse embryonic stem (mES) cells with input CCCCOCC(CN1CC1)OC(=O)NCCCCCCn1c(=O)n(CCCCCCNC(=O)OC(COCCCC)CN2CC2)c(=O)n(CCCCCCNC(=O)OC(COCCCC)CN2CC2)c1=O (stereo not drawn) [Ex. 1] equals 0.9

Field Rtkn induction level (system: Rtkn-GFP reporter in mouse embryonic stem (mES) cells) for entry CC(CN1CC1)OC(=O)NCCCCCCn1c(=O)n(CCCCCCNC(=O)OC(C)CN2CC2)c(=O)n(CCCCCCNC(=O)OC(C)CN2CC2)c1=O (stereo not drawn) [Comp. Ex. 3] = 1.9

GET /values?item= O=C(NCCCCCCn1c(=O)n(CCCCCCNC(=O)OCCN2CC2)c(=O)n(CCCCCCNC(=O)OCCN2CC2)c1=O)OCCN1CC1 [Comp. Ex. 2] &system= Rtkn-GFP reporter in mouse embryonic stem (mES) cells returns Rtkn induction level: 2.8

Measured on Rtkn-GFP reporter in mouse embryonic stem (mES) cells, CCCCOCC(CN1CC1)OC(=O)NCCCCCC/N=c1\oc(=O)n(CCCCCCNC(=O)OC(COCCCC)CN2CC2)c(=O)n1CCCCCCNC(=O)OC(COCCCC)CN1CC1 (stereo not drawn) [Ex. 5] has a documented Rtkn induction level of 1.0
